Tested on: HCC-2998 colon
Assay: NCI-60 one-dose screen, 48 h
Conditions: 10 µM
The panel holds about 83,000 compounds, 20% with a hit somewhere; the sample as a whole holds those more often. Calls of active or inactive are those of the source. The calls were made as follows: active = growth percent below 10; inactive = the rest.
Permitted responses: 1 (yes) = active, 0 (no) = inactive

Answered examples (3):
Prompt line: Tell me the recorded outcome of this test for `CCOC(=O)c1sc(Nc2ncccn2)nc1-c1ccccn1` .
Response line: 0 (no)

Prompt line: Any idea what this test logged for `C[n+]1c(/C=C/c2c[nH]c3ccccc23)ccc2ccccc21` ?
Response line: 0 (no)

Prompt line: I'd appreciate the recorded outcome for `CCOC(=O)Nc1ccc2c(c1)C(=O)N(CC)c1ccccc1O2` from this test.
Response line: 0 (no)

---
Prompt line: Field: outcome | Entry: c1ccc(CC(NCCNC(Cc2ccccc2)c2ccccc2)c2ccccc2)cc1 (centres undefined)
Response line: 1 (yes)

* * *

System: M14 melanoma
Assay: NCI-60 one-dose screen, 48 h
Conditions: 10 µM
This is part of a sample that, as a whole, favours compounds with a hit. Of some 83,000 tested, about 20% had one in any assay. Calls of active or inactive are those of the source. Rule for the calls: active = growth percent below 10; inactive = the rest.
The reply should name one outcome from active, inactive

Prompt line: Given CC1(CO)CCCC12OCCO2 (centres undefined) , state the outcome it received in this test.
Response line: inactive

Prompt line: Recorded test outcome, item `COc1cc(Cl)cc(-c2nn(-c3cccc(NC(=O)Nc4cccc(C(F)(F)F)c4)c3)cc2-c2ccncc2)c1`
Response line: active

Prompt line: Kindly provide the recorded test outcome for the following compound: `C#Cc1ccc(-n2c(/C=C/c3cc(OC)c(OC)c(OC)c3)nc3ncccc3c2=O)cc1`
Response line: inactive

Prompt line: For `C=CCn1c(C)nc2cc(Nc3nc(Nc4ccc5nc(C)n(CC=C)c5c4)c4ccccc4n3)ccc21` , which call appears in the assay record?
Response line: active

Prompt line: Any idea what this test logged for `COC(=O)[C@]12CC[C@@H](C)[C@H](C)[C@@H]1C1=CC[C@@H]3[C@@]4(C)C[C@@H](O)[C@H](O)[C@@](C)(CO)[C@@H]4[C@H](O)C[C@@]3(C)[C@]1(C)CC2` ?
Response line: active

Prompt line: Hi, sorry to bother you, what did the test record for `CCc1ccc(-c2nnc(COc3ccc(-c4nc5cc(Cl)c(Cl)cc5[nH]4)cc3OC)o2)cc1` ?
Response line: inactive

Prompt line: Please indicate how the test categorized CCCCCC(CCC)COC(=O)c1ccc(OC)cc1 (centres undefined) .
Response line: inactive

Prompt line: // return assay outcome for NC1CCC(Nc2nc(NCc3ccc(-c4cccs4)nc3)c3ncn(C4CCCC4)c3n2)CC1 (centres undefined)
Response line: active

Prompt line: For `O=C(NCc1cn(Cc2cccc(Oc3ccccc3)c2)nn1)c1cccnc1Nc1ccccc1` , what call appears in the results of this test?
Response line: inactive

* * *

System: SK-MEL-2 melanoma
Test: NCI-60 one-dose screen, 48 h (100 = growth as untreated, 0 = no growth, -100 = all killed)
Conditions: 10 µM
This is part of a sample that, as a whole, favours compounds with a hit. Of some 83,000 tested, about 20% had one in any assay.
observedProperty: growth (%)
I only need the number, in %, no unit after it.

Prompt line: What growth appears in the records for this molecule with SK-MEL-2 melanoma? `Nc1cc2c(cc1Cl)-c1ccc(Cl)cc1C2=O`
Response line: 95.7

Prompt line: Find growth (SK-MEL-2 melanoma) for the entry CCCCN(CCCC)c1ccc(C(=NC(C)CCCN(CC)CC)c2ccc(N(C)C)cc2)cc1 (stereo not given)
Response line: -78.9

Prompt line: Report growth for `O=C(NNC(=O)c1ccncc1)Nc1ccc([N+](=O)[O-])cc1` tested on SK-MEL-2 melanoma.
Response line: 95.8

Prompt line: API: value(readout= growth, system= SK-MEL-2 melanoma, query= `O=C(Nc1ccc(OS(=O)(=O)Cc2ccccc2)cc1)C12CC3CC(CC(C3)C1)C2` )
Response line: 102

Prompt line: Notebook entry, SK-MEL-2 melanoma assay: growth of `COc1ccc(-c2ccccc2)cc1C(=O)c1ccc(-c2ccccc2)cc1` = ?
Response line: 58.9

Prompt line: Test system SK-MEL-2 melanoma; read-out growth; what value for `Cc1ccc2c(c1)-c1cc(C)nn1-c1ccc(C#N)cc1O2` ?
Response line: 44.7

Prompt line: Which measured growth belongs to `Cc1cccc2c1O/C(=C\c1ncc([N+](=O)[O-])n1C)C2=O` , tested on SK-MEL-2 melanoma?
Response line: -45.3

Prompt line: // fetch SK-MEL-2 melanoma growth for `Cc1ccc(Cl)cc1Nc1nc(C(F)(F)F)ccc1C(=O)N/N=C/c1c(Cl)cccc1Cl`
Response line: 0.639

Prompt line: Find the measured growth: item `Nc1ccc(Sc2ccc3c4c2cccc4c(=O)n2c4ccccc4nc32)cc1` , target or system SK-MEL-2 melanoma.
Response line: 84.1

Prompt line: Fill in the recorded growth for this molecule, with SK-MEL-2 melanoma as test system: `CCN(CC)c1ccc(/C=C/C2=[N+](C)c3ccccc3C2(C)C)c(C)c1`
Response line: -12.7

* * *

Tested on: A498 renal
Test: NCI-60 one-dose screen, 48 h
Details: 10 µM
This is part of a sample that, as a whole, favours compounds with a hit. Of some 83,000 tested, about 20% had one in any assay. Calls of active or inactive are those of the source. How the source made its calls: active means growth percent below 10; inactive means the rest.
Pick one and only one: YES (active), NO (inactive)

Example results:
Prompt line: Assay result, entry CCCCCCCCCCCC(c1ccccc1)N(C)C (configuration not stated) — outcome?
Response line: NO

Prompt line: State the result this test recorded for `CCOCC[P+](c1ccccc1)(c1ccccc1)c1ccccc1` .
Response line: NO

Prompt line: Hello, I am checking results. What call was entered for `CC(C)C[C@H](NC(=O)Cn1ccc(Nc2ccccc2)cc1=O)B(O)O` ?
Response line: YES

Prompt line: Each compound tested received a call. Report the one for `O=C(O)c1ccc(CNc2ccc(C(=O)CCl)cc2)cc1` .
Response line: NO

Prompt line: Fill in: this test's call for `COc1cc(/C=C2\C(=O)Nc3cc(C)c(O)cc32)cc(OC)c1OC` is ___
Response line: NO

Prompt line: For `N#Cc1ccc(-n2cnc(NC(=O)[C@H]3CCN(C#N)C3)c2)cc1` , which call appears in the assay record?
Response line: YES

Prompt line: GET /call?item= Nc1nc2c(nnn2C2CC(O)C(CO)O2)c(=O)[nH]1 (configuration not stated) returns the recorded outcome of this test.
Response line: NO

Prompt line: Recorded call for CC(=O)Oc1ccc(C2=Cc3ccc(OC(C)=O)cc3OC2C)cc1 (configuration not stated) ?
Response line: NO

Prompt line: Entry `CCOC(=S)Sc1ccc([N+](=O)[O-])cc1[N+](=O)[O-]` : call = ?
Response line: NO

Prompt line: Assay result, entry `COc1ccc(-c2[nH]ncc2/C=C/c2cc(C(F)(F)F)[nH]c(=O)n2)cc1` — outcome?
Response line: NO

Consider the additional compound presented here.
Prompt line: Short answer needed: outcome of this test for `Cc1cc(Cl)ccc1Nc1nc(C(F)(F)F)ccc1C(=O)N/N=C/c1ccccc1Cl` ?
Response line: NO

* * *

System: NCI-H226 lung
Experiment: NCI-60 one-dose screen, 48 h (100 = growth as untreated, 0 = no growth, -100 = all killed)
Conditions: 10 µM
This is part of a sample that, as a whole, favours compounds with a hit. Of some 83,000 tested, about 20% had one in any assay. Active and inactive are the calls of the source. Rule for the calls: active = growth percent below 10; inactive = the rest.
observedProperty: growth

// worked examples, growth included
Prompt line: If you can, please state the reported growth value of `CCCn1c(=O)c2c(nc(-c3cccc(OCCCCl)c3)n2C)n(CCC)c1=O` .
Response line: 16.5% (inactive)

Prompt line: Quick one: growth of `CCN(CC)CCOC(=O)c1ccc(NC(=O)Nc2cccc(Cl)c2)cc1` ?
Response line: 99.6% (inactive)

Prompt line: // query growth value for entry `COc1ccccc1Cn1cc2c(c1-c1ccccc1)CCc1cnoc1-2`
Response line: 59.9% (inactive)

Prompt line: Which growth is reported for this compound? `CCN(CCCNC(=O)Cc1cc(=O)oc2cc(N(C)C)ccc12)CCNc1ccnc2cc(Cl)ccc12`
Response line: 93.1% (inactive)

# next compound below
Prompt line: I would be grateful if you could share the reported growth for `FC(F)(F)c1ccc(-c2cnc(Br)nc2NC2CCCCCC2)cc1` .
Response line: 53.1% (inactive)

* * *

growth values for the compounds below.
Test system: NCI-H460 lung
Test: NCI-60 one-dose screen, 48 h (100 = growth as untreated, 0 = no growth, -100 = all killed)
Conditions: 10 µM
Description: Growth inhibition of the NCI-H460 human Non-Small Cell Lung tumor cell line is measured as a screen for anti-cancer activity. Cells are grown in 96 well plates and exposed to the test compound for 48 hours. Compounds are tested at a single concentration, which is 10^-5 M for most compounds. The reported endpoint is percent growth (GI% or GIPRCNT), where numbers from 0 - 100% represent growth inhibition, and numbers from -100% - 0 represent cell death. […]
About 83,000 compounds went through this panel and 20% of them were active in at least one assay; those are over-represented in the sample as a whole.
Output spec: scalar in %, unitless text.

Take a look at these entries with their results.
Prompt line: Using the record for COc1ccc(-c2nsc3c2NC(=O)CC3c2cccc(Cl)c2)cc1 (stereo unspecified) , report its growth.
Response line: 13.3

Prompt line: Endpoint output: growth of `N#CCC1CCCC1` . Value?
Response line: 105

Prompt line: What does the data say about its growth? Entry: `O=[N+]([O-])c1ccc(-c2nc(Cl)c3c(n2)CCCC3)o1`
Response line: 34

Prompt line: # get_value(readout='growth', item= `Nc1nc(SCC#CCCl)c2[nH]cnc2n1` )
Response line: 29

Prompt line: Look up growth for this compound: `COc1cc(CSc2nc3ccc(C)cc3c(=O)n2-c2ccccc2)cc(OC)c1OC`
Response line: 20.2

Continuing:
Prompt line: Any idea what growth was measured for `O=S(=O)(NC1c2ccccc2Oc2ccccc21)c1ccccc1` ?
Response line: 107
